# Assay Info: Boiling temperature at pressure P
# Test Conditions: 101 kPa; Liquid; Ebulliometric method (Recirculating still)
Numbers after ± are expanded uncertainties.
Each item that follows carries a reported Boiling temperature at pressure P.
Field: value (include unit after the number)

Example cases with answers are listed next.
CC(C)=C(C)C: 73.00 ± 0.04 °C
C=C(C)C(C)C: 55.73 ± 0.04 °C

Give Boiling temperature at pressure P for the following compound: Cc1ccsc1
115.20 ± 0.04 °C

Give Boiling temperature at pressure P for the following compound: CCCCCCC
98.49 ± 0.04 °C

Give Boiling temperature at pressure P for the following compound: c1ccsc1
84.27 ± 0.04 °C

Where these numbers come from: the NIST ThermoML archive (doi:10.1016/j.fluid.2013.05.019)
